Each recorded value in this set is attributed to paper PMC11131246.

# Lookup of reported tissue uptake at 2 min keyed by entry
assay: Biodistribution of 67Ga-radiolabeled peptides; parameters: species or system mouse; details: female, CD1, mouse, in vivo, iv, 100 uCi, total radioactivity, Tissue distribution, Blood
Residues, ends and D or L forms follow the SMILES beside them. *: point of attachment. NODAGA = O=C(O)CN1CCN(CC(=O)O)CCN(C(CCC(=O)*)C(=O)O)CC1
Returns: string containing the number followed by the unit.

Record excerpt, results attached:
>>> endpoint_result("CC(C)C[C@H](NC(=O)[C@H](Cc1c[nH]c2ccccc12)NC(=O)[C@H](Cc1ccccc1)NC(=O)[C@H](CCC(N)=O)NC(=O)[C@H](C)NC(=O)[C@H](CO)NC(=O)[C@H](CC(=O)O)NC(=O)[C@@H]1CCCN1C(=O)[C@H](CCCNC(=N)N)NC(=O)[C@H](CC(N)=O)NC(=O)CCC(C(=O)O)N1CCN(CC(=O)O)CCN(CC(=O)O)CC1)C(=O)N[C@@H](Cc1c[nH]cn1)C(=O)N[C@@H](Cc1c[nH]cn1)C(N)=O (stereo partly drawn) [67Ga-BBBpS_9, metal not drawn] ({NODAGA}-NRPDSAQFWLHH-NH2)")
"11.6 %ID/g"
>>> endpoint_result("CC[C@H](C)[C@H](NC(=O)[C@H](Cc1c[nH]cn1)NC(=O)CCC(C(=O)O)N1CCN(CC(=O)O)CCN(CC(=O)O)CC1)C(=O)N[C@@H](CCC(N)=O)C(=O)N[C@@H](CC(C)C)C(=O)N[C@@H](CO)C(=O)N1CCC[C@H]1C(=O)N[C@@H](Cc1ccccc1)C(=O)N[C@@H](CO)C(=O)N[C@@H](CCC(N)=O)C(=O)N[C@@H](CO)C(=O)N[C@@H](Cc1c[nH]c2ccccc12)C(=O)N[C@@H](CCCNC(=N)N)C(N)=O (stereo partly drawn) [67Ga-BBBpS_5, metal not drawn] ({NODAGA}-HIQLSPFSQSWR-NH2)")
"10.7 %ID/g"

Please examine the following record next.
Measured tissue uptake at 2 min of CC[C@H](C)[C@H](NC(=O)[C@H](C)NC(=O)CNC(=O)[C@H](CO)NC(=O)[C@H](CCCNC(=N)N)NC(=O)[C@H](Cc1ccc(O)cc1)NC(=O)[C@H](CCCCN)NC(=O)CCC(C(=O)O)N1CCN(CC(=O)O)CCN(CC(=O)O)CC1)C(=O)N[C@H](C(=O)N[C@H](C(=O)NCC(=O)N[C@@H](Cc1ccc(O)cc1)C(N)=O)[C@@H](C)CC)[C@@H](C)O (stereo partly drawn) [67Ga-BBBpS_2, metal not drawn] ({NODAGA}-KYRSGAITIGY-NH2) : 13.4 %ID/g

###

assay: Analytical RP-HPLC retention time (used as indication of hydrophobicity); assay type: physicochemical; conditions: analytical reverse phase HPLC, UV chromatogram; free and CF-labelled peptides
READOUT NAME: HPLC tR (min)
Expressed in min, but write only the number.

Would you please look over these solved cases?
>>> endpoint_result("CF-YTQDFNKFHTFPQTAIGVGAP-amide [CF-hCR(12–32), 5(6)-carboxyfluorescein-labelled hCR(12–32)]")
8.79
>>> endpoint_result("CF-KWCFRVCYRGICYRRCR-amide [CF-TI, 5(6)-carboxyfluorescein-labelled TI]")
8.11
>>> endpoint_result("CF-NRPDSAQFWLHH-amide [CF-Peptide third, 5(6)-carboxyfluorescein-labelled Peptide third]")
8.01
>>> endpoint_result("CF-KYKGAIIGNIK-amide [CF-A, 5(6)-carboxyfluorescein-labelled A]")
7.05
>>> endpoint_result("CF-RPKPQQFFGLM-amide [CF-SPA, 5(6)-carboxyfluorescein-labelled SPA]")
9.25
>>> endpoint_result("CF-KKKKQPPKPKKPKTQEKKKKQPPKPKR-amide [CF-P1746c27, 5(6)-carboxyfluorescein-labelled P1746c27]")
4.23

Per the record, CF-YDEEGGGE-amide [CF-YDEGE, 5(6)-carboxyfluorescein-labelled YDEGE] has HPLC tR of 7.89

The recorded HPLC tR for entry CF-EEGRLYMRYYSPTTRRYG-amide [CF-CPP(II), 5(6)-carboxyfluorescein-labelled CPP(II)] equals 7.95

In plain terms, CF-YKEATSTFTNITYRGT-amide [CF-Peptide b3-1, 5(6)-carboxyfluorescein-labelled Peptide b3-1] has a documented HPLC tR of 8.63

###

experiment: Biodistribution of 67Ga-radiolabeled peptides; parameters: species or system mouse; settings: female, CD1, mouse, in vivo, iv, 100 uCi, total radioactivity, Tissue distribution, Bone
Residues, ends and D or L forms follow the SMILES beside them. *: point of attachment. NODAGA = O=C(O)CN1CCN(CC(=O)O)CCN(C(CCC(=O)*)C(=O)O)CC1
READOUT NAME: tissue uptake at 1 h (%ID/g)
Please respond with the number in %ID/g and leave the unit unwritten.

Consider the following illustrative entries.
>>> endpoint_result("CC[C@H](C)[C@H](NC(=O)[C@H](Cc1c[nH]cn1)NC(=O)CCC(C(=O)O)N1CCN(CC(=O)O)CCN(CC(=O)O)CC1)C(=O)N[C@@H](CCC(N)=O)C(=O)N[C@@H](CC(C)C)C(=O)N[C@@H](CO)C(=O)N1CCC[C@H]1C(=O)N[C@@H](Cc1ccccc1)C(=O)N[C@@H](CO)C(=O)N[C@@H](CCC(N)=O)C(=O)N[C@@H](CO)C(=O)N[C@@H](Cc1c[nH]c2ccccc12)C(=O)N[C@@H](CCCNC(=N)N)C(N)=O (stereo partly shown) [67Ga-BBBpS_5, metal not drawn] ({NODAGA}-HIQLSPFSQSWR-NH2)")
0.6
>>> endpoint_result("CC(C)C[C@H](NC(=O)[C@H](Cc1c[nH]c2ccccc12)NC(=O)[C@H](Cc1ccccc1)NC(=O)[C@H](CCC(N)=O)NC(=O)[C@H](C)NC(=O)[C@H](CO)NC(=O)[C@H](CC(=O)O)NC(=O)[C@@H]1CCCN1C(=O)[C@H](CCCNC(=N)N)NC(=O)[C@H](CC(N)=O)NC(=O)CCC(C(=O)O)N1CCN(CC(=O)O)CCN(CC(=O)O)CC1)C(=O)N[C@@H](Cc1c[nH]cn1)C(=O)N[C@@H](Cc1c[nH]cn1)C(N)=O (stereo partly shown) [67Ga-BBBpS_9, metal not drawn] ({NODAGA}-NRPDSAQFWLHH-NH2)")
0.5
>>> endpoint_result("CC[C@H](C)[C@H](NC(=O)[C@H](C)NC(=O)CNC(=O)[C@H](CCCCN)NC(=O)[C@H](Cc1ccc(O)cc1)NC(=O)[C@H](CCCCN)NC(=O)CCC(C(=O)O)N1CCN(CC(=O)O)CCN(CC(=O)O)CC1)C(=O)N[C@H](C(=O)NCC(=O)N[C@@H](CC(N)=O)C(=O)N[C@H](C(=O)N[C@@H](CCCCN)C(N)=O)[C@@H](C)CC)[C@@H](C)CC (stereo partly shown) [67Ga-BBBpS_1, metal not drawn] ({NODAGA}-KYKGAIIGNIK-NH2)")
0.3

So for CC[C@H](C)[C@H](NC(=O)[C@H](C)NC(=O)CNC(=O)[C@H](CO)NC(=O)[C@H](CCCNC(=N)N)NC(=O)[C@H](Cc1ccc(O)cc1)NC(=O)[C@H](CCCCN)NC(=O)CCC(C(=O)O)N1CCN(CC(=O)O)CCN(CC(=O)O)CC1)C(=O)N[C@H](C(=O)N[C@H](C(=O)NCC(=O)N[C@@H](Cc1ccc(O)cc1)C(N)=O)[C@@H](C)CC)[C@@H](C)O (stereo partly shown) [67Ga-BBBpS_2, metal not drawn] ({NODAGA}-KYRSGAITIGY-NH2) , the logged tissue uptake at 1 h turned out to be 0.8

###

test: Biodistribution of 67Ga-radiolabeled peptides; parameters: species or system mouse; conditions: female, CD1, mouse, in vivo, iv, 100 uCi, total radioactivity, Tissue distribution, Brain (brain uptake)
Residues, ends and D or L forms follow the SMILES beside them. *: point of attachment. NODAGA = O=C(O)CN1CCN(CC(=O)O)CCN(C(CCC(=O)*)C(=O)O)CC1
Listing of recorded tissue uptake at 2 min by entry.
Supply the numeric figure in %ID/g, leaving out any unit text.

>>> endpoint_result("CC[C@H](C)[C@H](NC(=O)[C@H](Cc1c[nH]cn1)NC(=O)CCC(C(=O)O)N1CCN(CC(=O)O)CCN(CC(=O)O)CC1)C(=O)N[C@@H](CCC(N)=O)C(=O)N[C@@H](CC(C)C)C(=O)N[C@@H](CO)C(=O)N1CCC[C@H]1C(=O)N[C@@H](Cc1ccccc1)C(=O)N[C@@H](CO)C(=O)N[C@@H](CCC(N)=O)C(=O)N[C@@H](CO)C(=O)N[C@@H](Cc1c[nH]c2ccccc12)C(=O)N[C@@H](CCCNC(=N)N)C(N)=O (stereo partly drawn) [67Ga-BBBpS_5, metal not drawn] ({NODAGA}-HIQLSPFSQSWR-NH2)")
0.74
>>> endpoint_result("CC[C@H](C)[C@H](NC(=O)[C@H](C)NC(=O)CNC(=O)[C@H](CCCCN)NC(=O)[C@H](Cc1ccc(O)cc1)NC(=O)[C@H](CCCCN)NC(=O)CCC(C(=O)O)N1CCN(CC(=O)O)CCN(CC(=O)O)CC1)C(=O)N[C@H](C(=O)NCC(=O)N[C@@H](CC(N)=O)C(=O)N[C@H](C(=O)N[C@@H](CCCCN)C(N)=O)[C@@H](C)CC)[C@@H](C)CC (stereo partly drawn) [67Ga-BBBpS_1, metal not drawn] ({NODAGA}-KYKGAIIGNIK-NH2)")
0.66

Consider the record given below.
Memo: CC[C@H](C)[C@H](NC(=O)[C@H](C)NC(=O)CNC(=O)[C@H](CO)NC(=O)[C@H](CCCNC(=N)N)NC(=O)[C@H](Cc1ccc(O)cc1)NC(=O)[C@H](CCCCN)NC(=O)CCC(C(=O)O)N1CCN(CC(=O)O)CCN(CC(=O)O)CC1)C(=O)N[C@H](C(=O)N[C@H](C(=O)NCC(=O)N[C@@H](Cc1ccc(O)cc1)C(N)=O)[C@@H](C)CC)[C@@H](C)O (stereo partly drawn) [67Ga-BBBpS_2, metal not drawn] ({NODAGA}-KYRSGAITIGY-NH2) , reported tissue uptake at 2 min: 0.52
